assay: Cytotoxicity against human A549 cells after 72 hrs by MTT assay; settings: A549, 72 h
Cut-off 1000 nM on IC50: below means met, at or above means not met.

Previously resolved entries follow.
Cn1c(=O)c(C(=O)Nc2ccc(Oc3ccncc3-c3cccnc3)c(F)c2)nn(-c2ccccc2F)c1=O
met
Cn1cc(-c2ccc(F)cc2)cc(C(=O)Nc2ccc(Oc3ccncc3-c3cccnc3)c(F)c2)c1=O
not met
O=C(Nc1ccc(Oc2ccncc2-c2cccnc2)c(F)c1)c1ccnn(-c2ccc(F)cc2)c1=O
not met
Cn1c(=O)c(C(=O)Nc2ccc(Oc3ccncc3-c3cccnc3)c(F)c2)nn(-c2ccc(F)c(Cl)c2)c1=O
not met

Decide: IC50 of COc1ccc(-n2nc(C(=O)Nc3ccc(Oc4ccncc4-c4cccnc4)c(F)c3)c3ccccc3c2=O)cc1 strictly below 1000 nM?
not met

Decide: IC50 of O=C(Nc1ccc(Oc2ccncc2-c2cccnc2)c(F)c1)c1nn(-c2ccccc2)c(=O)c2ccccc12 strictly below 1000 nM?
not met

Decide: IC50 of Cn1c(=O)c(C(=O)Nc2ccc(Oc3ccncc3-c3cccnc3)c(F)c2)nn(-c2c(Cl)cccc2Cl)c1=O strictly below 1000 nM?
met

Decide: IC50 of O=C(Nc1ccc(Oc2ccncc2-c2cccnc2)c(F)c1)C1=NN(c2ccc(F)c(F)c2)c2ccccc2S1(=O)=O strictly below 1000 nM?
not met

----------
assay: Cytotoxicity against human A549 cells after 72 hrs by MTT assay; details: A549, 72 h
measurement kind: pIC50
# log scale: pIC50 equals minus log10 of the concentration in mol/L

O=C(Nc1ccc(Oc2ccncc2-c2cccnc2)c(F)c1)c1nn(-c2ccc(Cl)cc2)c(=O)c2ccccc12
5.99
Fc1ccc(Nc2cc(Nc3ccc(Oc4ccncc4-c4cccnc4)c(F)c3)ncn2)cc1F
5.12
O=C(Nc1ccc(Oc2ccncc2-c2cccnc2)c(F)c1)C1=NN(c2ccccc2C(F)(F)F)c2ccccc2S1(=O)=O
6.92

Please report the recorded pIC50 for O=C(Nc1ccc(Oc2ccncc2-c2cccnc2)c(F)c1)c1nn(-c2cccc(F)c2)c(=O)c2ccccc12 .
5.76

Please report the recorded pIC50 for Fc1cc(Nc2cc(Nc3cccc(Cl)c3)ncn2)ccc1Oc1ccncc1-c1cccnc1 .
6.74

Please report the recorded pIC50 for Cn1c(=O)c(C(=O)Nc2ccc(Oc3ccncc3-c3cccnc3)c(F)c2)nn(-c2cccc(C(F)(F)F)c2)c1=O .
6.34

Please report the recorded pIC50 for O=C(Nc1ccc(Oc2ccncc2-c2cccnc2)c(F)c1)C1=NN(c2cccc(F)c2)c2ccccc2S1(=O)=O .
6.05

Please report the recorded pIC50 for O=C(Nc1ccc(Oc2ccncc2-c2cccnc2)c(F)c1)c1ccnn(-c2ccc(Cl)cc2)c1=O .
5.18

Please report the recorded pIC50 for Cn1cc(-c2ccccc2)cc(C(=O)Nc2ccc(Oc3ccncc3-c3cccnc3)c(F)c2)c1=O .
5.12

----------
experiment: Cytotoxicity against human A549 cells after 72 hrs by MTT assay; conditions: A549, 72 h
Collected IC50 values appear next to each entry.
Give just the numeric value; µM need not be written.

Past entries and their recorded results:
COc1ccc(-n2nc(C(=O)Nc3ccc(Oc4ccncc4-c4cccnc4)c(F)c3)c(=O)n(C)c2=O)c(OC)c1
0.89
Fc1cc(Nc2cc(Nc3ccccc3)ncn2)ccc1Oc1ccncc1-c1cccnc1
0.41
COc1ccc(Nc2cc(Nc3ccc(Oc4ccncc4-c4cccnc4)c(F)c3)ncn2)cc1
2.14
Cn1c(=O)c(C(=O)Nc2ccc(Oc3ccncc3-c3cccnc3)c(F)c2)nn(-c2ccc(Cl)cc2)c1=O
0.93
Fc1cc(Nc2cc(Nc3ccc(Cl)cc3)ncn2)ccc1Oc1ccncc1-c1cccnc1
1.61

Please report the recorded IC50 for Fc1ccc(Nc2cc(Nc3ccc(Oc4ccncc4-c4cccnc4)c(F)c3)ncn2)cc1 .
0.71

Please report the recorded IC50 for O=C(Nc1ccc(Oc2ccncc2-c2cccnc2)c(F)c1)c1nn(-c2ccc(F)cc2)c(=O)c2ccccc12 .
0.82

Please report the recorded IC50 for COc1cc(Nc2cc(Nc3ccc(Oc4ccncc4-c4cccnc4)c(F)c3)ncn2)cc(OC)c1 .
0.56
